- Test System: human GPBAR1 receptor (Homo sapiens)
- Sequence (Q8TDU6 whole entry): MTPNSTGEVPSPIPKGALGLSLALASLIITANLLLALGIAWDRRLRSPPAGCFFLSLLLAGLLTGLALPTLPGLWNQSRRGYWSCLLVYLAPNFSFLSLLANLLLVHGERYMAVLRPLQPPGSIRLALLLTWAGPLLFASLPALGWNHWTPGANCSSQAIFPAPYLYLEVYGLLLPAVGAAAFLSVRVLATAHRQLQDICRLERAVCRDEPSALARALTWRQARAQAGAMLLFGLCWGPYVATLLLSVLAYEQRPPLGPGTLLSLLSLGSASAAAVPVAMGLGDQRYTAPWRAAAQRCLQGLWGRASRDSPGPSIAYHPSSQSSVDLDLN
- Assay Text: functional cAMP assay in CHO-dhfr(minus) cells expressing human GPBAR1 receptors
- Condition Parameters: cAMP increase (TR-FRET) in CHO-dhfr(minus) cells expressing human GPBAR1; compounds incubated 30 min at 30° C.
Recorded EC50, one value per entry.
Recorded Metric: EC50 (nM)

Molecule | Test System | Recorded Metric | Endpoint Result
CC(C)c1cccc(Oc2ncccc2C(=O)N2CCCc3ccccc32)c1 [Example 19] | human GPBAR1 receptor (Homo sapiens) | EC50 | 625
CN(C(=O)c1cccnc1Oc1cc(Cl)ccc1Cl)c1ncccc1Cl [Example 46] | human GPBAR1 receptor (Homo sapiens) | EC50 | 905
COC(=O)C/C=C/c1cc(Cl)c(Oc2ncccc2C(=O)N2CCN(C3CC3)c3ccccc32)cc1Cl [Example 174] | human GPBAR1 receptor (Homo sapiens) | EC50 | 29
O=C(c1cccnc1Oc1cc(Cl)ccc1Cl)N1CCN(C2CC2)c2ccccc21 [Example 125] | human GPBAR1 receptor (Homo sapiens) | EC50 | 4
C=C1CCN(C(=O)c2cccnc2Oc2cc(Cl)ccc2Cl)c2ccccc21 [Example 129] | human GPBAR1 receptor (Homo sapiens) | EC50 | 24
